- Tested on: Plasmodium falciparum 3D7
- protocolNotes: microbe, parasite or virus in culture
- measurementConditions: Table 8, MMV03 SAR
Below, each of the molecules is paired with its reported LLE (ligand-lipophilicity efficiency) value.
A bare number is all that is needed in reply.

>  <molSmiles>
N#Cc1ccc(-n2cc(C(=O)Nc3nc4ccccc4[nH]3)c(-c3cccnc3)n2)cc1

>  <LLE (ligand-lipophilicity efficiency)>
3.2

$$$$

Suppose we examine the molecule "O=C(Nc1ccncc1)c1cn(-c2ccccc2)nc1-c1cccs1" ; what LLE (ligand-lipophilicity efficiency) value has been reported?
2.9

Please do the same for "Cc1cc(NC(=O)c2cn(-c3ccccc3)nc2-c2cccs2)[nH]n1" as well.
1.9

// query: "O=C(Nc1nc2ccccc2[nH]1)c1cn(-c2ccc(F)cc2)nc1-c1cccnc1"
2.8

Also check "Cn1cc(C(=O)Nc2cccnc2)c(-c2cccs2)n1"
2

* * *

// reported LLE (ligand-lipophilicity efficiency) per item
- Tested on: Plasmodium falciparum 3D7
- protocolNotes: microbe, parasite or virus in culture
- measurementConditions: Table 8, MMV03 SAR
The response must contain the number and no unit.

Please review the entries below; each comes with its answer.
>  <compound>
CC(C)(C)n1cc(C(=O)Nc2nc3ccccc3[nH]2)c(-c2cccnc2)n1 [Compound A0043]

>  <LLE (ligand-lipophilicity efficiency)>
1.2

$$$$
>  <compound>
CC(C)c1nn(-c2ccccc2)cc1C(=O)Nc1cccnc1 [Compound A0039]

>  <LLE (ligand-lipophilicity efficiency)>
2.1

$$$$
>  <compound>
O=C(Nc1nc2ccccc2[nH]1)c1cn(-c2ccccc2)nc1-c1cccs1 [Compound A0034]

>  <LLE (ligand-lipophilicity efficiency)>
2

$$$$
>  <compound>
Cc1nn(-c2ccccc2)cc1C(=O)Nc1cccnc1 [Compound A0040]

>  <LLE (ligand-lipophilicity efficiency)>
2.8

$$$$
>  <compound>
O=C(Nc1cccnc1)c1cn(-c2ccccc2)nc1-c1cccnc1 [Compound A0038]

>  <LLE (ligand-lipophilicity efficiency)>
3.2

$$$$

If you can, please state the reported LLE (ligand-lipophilicity efficiency) value of CCN(CC)CCNC(=O)c1cn(-c2ccccc2)nc1-c1cccs1 [Compound A0037] .
2.7

Same again, this time with O=C(Nc1cccnc1)c1cn(-c2ccccc2)nc1-c1cccs1 [Compound A0003]
3.2

Queued: CC(C)CCNC(=O)c1cn(-c2ccccc2)nc1-c1cccs1 [Compound A0036]
1.1

Same question for O=C(Nc1nc2ccccc2[nH]1)c1cn(-c2ccccc2)nc1-c1cccnc1 [Compound A0032] please.
2.9

* * *

Each item that follows carries a reported pEC50.
- Tested on: Plasmodium falciparum 3D7
- protocolNotes: microbe, parasite or virus in culture
- measurementConditions: read-out: P. fal. EC50; Table 7, MMV04 SAR
Please treat pEC50 as minus the base-10 logarithm of the molar concentration.

>  <molSmiles>
COc1cc(NC(=O)c2cc(-c3cccnc3)nc3ccc(Br)cc23)cc(OC)c1

>  <targetDesc>
Plasmodium falciparum 3D7

>  <pEC50>
6.13

$$$$
>  <molSmiles>
O=C(Nc1cccnc1)c1cc(-c2cccnc2)nc2ccc(Cl)cc12

>  <targetDesc>
Plasmodium falciparum 3D7

>  <pEC50>
6.42

$$$$
>  <molSmiles>
CCOC(=O)c1ccc(NC(=O)c2cc(-c3cccnc3)nc3ccc(Cl)cc23)cc1

>  <targetDesc>
Plasmodium falciparum 3D7

>  <pEC50>
6.70

$$$$

# ---- query molecule ----
For the record "O=C(Nc1cccnc1)c1cc(-c2cccnc2)nc2ccc(Br)cc12" , what value of pEC50 is listed for Plasmodium falciparum 3D7?
6.15

* * *

- protocolNotes: in vitro
- Assay type: cell-based
- measurementConditions: human, MRC-5 pd30 normal diploid fibroblasts (monolayers); Table 8, MMV03 SAR; read-out: MRC5 EC50
- Description: Cells were plated and incubated overnight to allow them to adhere as monolayers. A working stock of each test compound was transferred to an intermediate 384-well plate and pre-diluted with minimum essential media (MEM). […] Resazurin, to a final concentration of 50 μM was added to each well, after which plates were incubated for a further 3 h and measured for fluorescence (λ ex = 528 nm, λ em = 590 nm). […]
observationType: EC50 at 68 h (µM)
Return type: number; implicit unit µM.

Answered examples (2):
>  <molSmiles>
O=C(Nc1nc2ccccc2[nH]1)c1cn(-c2ccccc2)nc1-c1cccs1

>  <assayResult>
13

$$$$
>  <molSmiles>
Cc1nn(-c2ccccc2)cc1C(=O)Nc1cccnc1

>  <assayResult>
50

$$$$

Which value of EC50 at 68 h has been reported for "CC(C)c1nn(-c2ccccc2)cc1C(=O)Nc1cccnc1" in the records?
50

* * *

- Tested on: Plasmodium falciparum 3D7
- protocolNotes: microbe, parasite or virus in culture
- measurementConditions: Plasmodium falciparum, 3D7, read-out: Percentage inhibition of the growth of Plasmodium falciparum, Prestwick Library pilot screen, screening conc. 0.005 mM, duplicate
Structures can show the parent of a compound that is named as a salt.
Each entry below carries its recorded inhibition at 5 µM.
Provide only the numeric value, understood in %.

>  <molecule>
OC(c1cc(C(F)(F)F)nc2c(C(F)(F)F)cccc12)C1CCCCN1 (stereo not drawn) [Mefloquine hydrochloride, reference compound]

>  <observationType>
inhibition at 5 µM

>  <assayResult>
97.4

$$$$
>  <molecule>
O=C1C(O)=C([C@H]2CC[C@H](c3ccc(Cl)cc3)CC2)C(=O)c2ccccc21 [Atovaquone, reference compound]

>  <observationType>
inhibition at 5 µM

>  <assayResult>
99

$$$$
>  <molecule>
CN1C[C@H](CNC(=O)OCc2ccccc2)C[C@@H]2c3cccc4c3c(cn4C)C[C@H]21 [Metergoline, reference compound]

>  <observationType>
inhibition at 5 µM

>  <assayResult>
56

$$$$

Param item = CCCNCC(O)COc1ccccc1C(=O)CCc1ccccc1 (stereo not drawn) [Propafenone hydrochloride, reference compound] ; retrieve measured inhibition at 5 µM.
99

// query: COc1ccc2cc3[n+](cc2c1OC)CCc1cc2c(cc1-3)OCO2 [Berberine chloride, reference compound]
99

Can you check C[N+](C)(C)CCCCCCCCCC[N+](C)(C)C [Decamethonium bromide, reference compound] next?
64

* * *

- Tested on: Plasmodium falciparum 3D7
- protocolNotes: microbe, parasite or virus in culture
- measurementConditions: read-out: P. fal. EC50; Table 8, MMV03 SAR
observationType: log10 EC50 (log10 of the value in µM)
# log10 transformed; quantity=EC50; unit=µM

Kindly state the measured log10 EC50 obtained for "Cc1cc(NC(=O)c2cn(-c3ccccc3)nc2-c2cccs2)[nH]n1" with Plasmodium falciparum 3D7.
0.78

Follow-up item: "O=C(Nc1cccnc1)c1cn(-c2ccccc2)nc1-c1cccs1"
-0.52

Again, but for "CCN(CC)CCNC(=O)c1cn(-c2ccccc2)nc1-c1cccs1"
1.11

Repeat with "O=C(Nc1nc2ccccc2[nH]1)c1cn(-c2ccccc2)nc1-c1cccnc1"
-0.30

Entry "CC(C)CCNC(=O)c1cn(-c2ccccc2)nc1-c1cccs1" please
1.26

* * *

- System: Plasmodium falciparum 3D7
- protocolNotes: microbe, parasite or virus in culture
- measurementConditions: read-out: EC50 P. falciparum; Table 4, primary hits of kinase library
Collected EC50 values appear next to each entry.
Give the value in nM but do not write nM after it.

>  <compound>
O=C(Nc1cccnc1)c1cn(-c2ccccc2)nc1-c1cccs1 [Compound A0003]

>  <readoutUnit>
nM

>  <EC50>
600

$$$$
>  <compound>
Fc1ccc(-c2cc(Nc3ccncc3)nc(-c3ccccc3)n2)cc1 [Compound A0002]

>  <readoutUnit>
nM

>  <EC50>
200

$$$$

# get_value(readout= EC50, system= Plasmodium falciparum 3D7) for O=C(Nc1cccnc1)c1cc(-c2cccnc2)nc2ccc(Br)cc12 [Compound A0004]
700

* * *

Each entry below lists one item and its recorded pEC50 value.
- Test system: normal diploid human fibroblasts (MRC-5 pd30)
- protocolNotes: in vitro
- Format: cell-based
- measurementConditions: Table 8, MMV03 SAR; read-out: MRC5 EC50
pEC50 is a log-scale quantity: -log10 of the concentration expressed in molar.

Previously resolved entries follow.
>  <molSmiles>
O=C(Nc1nc2ccccc2[nH]1)c1cn(-c2ccc(F)cc2)nc1-c1cccnc1

>  <observationType>
pEC50

>  <assayResult>
4.85

$$$$
>  <molSmiles>
CC(C)CCNC(=O)c1cn(-c2ccccc2)nc1-c1cccs1

>  <observationType>
pEC50

>  <assayResult>
4.30

$$$$
>  <molSmiles>
CCN(CC)CCNC(=O)c1cn(-c2ccccc2)nc1-c1cccs1

>  <observationType>
pEC50

>  <assayResult>
4.74

$$$$

Look up pEC50 with normal diploid human fibroblasts (MRC-5 pd30) for this molecule: "O=C(Nc1nc2ccccc2[nH]1)c1cn(-c2ccccc2)nc1-c1cccnc1"
4.68

Okay, and "N#Cc1ccc(-n2cc(C(=O)Nc3nc4ccccc4[nH]3)c(-c3cccnc3)n2)cc1" ?
4.82

Try this molecule too: "O=C(Nc1cccnc1)c1cn(-c2ccccc2)nc1-c1cccnc1"
4.74

Proceed to "O=C(Nc1ccncc1)c1cn(-c2ccccc2)nc1-c1cccs1"
4.41

Same again, this time with "Cc1cc(NC(=O)c2cn(-c3ccccc3)nc2-c2cccs2)[nH]n1"
4.62
